System: ACHN renal
ASSAY_REMARKS: NCI tumour cell line growth inhibition, 48 h
ATTRIBUTE_MEASURED: TGI

Short answer for COc1ccc2c(c1OCC(=O)O)C(=O)C(CCC(=O)O)CC2 (stereo not drawn) : TGI was > 100 µM

Short answer for CC1(C)OC[C@@H](O)[C@H](C#N)CO1 : TGI was > 100 µM

Short answer for COc1cc(N(CCC#N)CCC#N)ccc1/C(N=Nc1ccc(Cl)cc1)=N/NC(=O)c1cc(Br)ccc1O : TGI was > 150 µg/mL

Short answer for O=C(O)c1ccccc1CC(Cc1ccc2c(c1)CCC2)C(=O)O (stereo not drawn) : TGI was > 100 µM

Short answer for Cc1ccc(/C=N\NC2c3cc(Cl)ccc3Nc3nc(=O)[nH]c(C)c32)cc1 (stereo not drawn) : TGI was > 100 µM

Short answer for OC[C@H]1O[C@@H]2O[C@@](COCc3ccccc3)([C@H](OCc3ccccc3)[C@H]2O)[C@@H]1OCc1ccccc1 : TGI was 31.1 µM

Short answer for O=C(O)COc1ccccc1C(=O)Nc1ccccc1 : TGI was > 100 µM

Short answer for Nc1ccc(N=Nc2c(S(=O)(=O)O)cc3ccccc3c2S(=O)(=O)O)cc1 : TGI was > 100 µM

Short answer for CCn1c(O)c(/C=N/NC(=O)C(C)c2ccc(CC(C)C)cc2)sc1=S (stereo not drawn) : TGI was > 38.8 µM

Short answer for NNC(=O)CNc1cccc(Br)c1 : TGI was > 100 µM

Short answer for Cc1ccccc1C(=O)c1cc(O)ccc1O : TGI was > 100 µM

Short answer for COc1ccc(C(=O)Nc2ccc(O)c(=O)cc2)cc1 : TGI was 59.8 µM

Short answer for NCCCN1c2ccccc2Sc2ccc(Cl)cc21 : TGI was > 10 µM

Short answer for On1c(-c2ccccc2)c(-c2ccccc2N2CCCC2)c2ccccc21 : TGI was > 100 µM

Short answer for O=C(O)[C@H]1CCCN1CP(=O)(O)CN1CCC[C@@H]1C(=O)O : TGI was > 100 µM

Short answer for S=c1[nH]c(=S)c2cc3ccccc3nc2[nH]1 : TGI was > 100 µM

Short answer for CCOC(=O)N[C@H]1CCc2cc(OC)c(OC)c(OC)c2-c2ccc(SC)c(=O)cc21 : TGI was > 100 µM

Short answer for Cc1c(N(C)C)ccc2c(=O)c3cccc(CC(=O)O)c3oc12 : TGI was > 100 µM

Short answer for O=C(Nc1cccc(Cl)c1)C(=O)C(C(=O)c1ccc2ccccc2c1)C1OC(=O)c2ccccc21 (stereo not drawn) : TGI was 82.7 µM

Short answer for Oc1cc(Cl)cc2cccnc12 : TGI was > 91.6 µM

Short answer for COC1=CC(=O)c2c(c(-c3nc(C)cs3)cn2C)C1=O : TGI was > 100 µM

Short answer for C/C(N=NC(=S)N1CC2CCC(CC2)C1)=C1\C=CC=CN1O : TGI was 30.7 µM

Short answer for CCOC(=O)Nc1cc2c(c(N)n1)N=C(c1ccccc1)CO2 : TGI was 31.7 µM
